- Tested on: Wolbachia pipientis
- Assay Method Text: Anti-Wolbachia Cell-Based Screen
- Type: functional
- Parameters: scale not given: in the data most compounds retested in dose-response had high values
- Condition Description: 5 µM
Screen size: about 48,000 compounds; about 13,000 (27%) showed an effect of 50% or more. Some of the results follow.
Assignment: determine reported Percent Effect for the given compounds.
Write the value in % as a bare number.

Query string: Any idea what Percent Effect was measured for Cc1ccc(CN2CCCC(c3nnc(CN4CCCCC4)n3C)C2)s1 (stereo not drawn) ?
Result string: 9.152

Query string: Now try Cc1ccc(CN2CCCC(c3nnc(CN4CCCC4)n3C)C2)s1 (stereo not drawn) .
Result string: 10.41

Query string: What would you report for O=C(CN1CCOCS1(=O)=O)NCc1ccccc1 ?
Result string: -2.644

Query string: Also, O=S1(=O)COCCN1Cc1ccc(F)c(F)c1 please.
Result string: 115.2

Query string: For CS(=O)(=O)N1CCOCC2(CN(Cc3ccco3)CCO2)C1.O=C(O)C(F)(F)F (stereo not drawn) then?
Result string: -8.773

Query string: Proceed to Cc1nnc([C@@]23CCO[C@@H]2CCN(S(=O)(=O)c2ccccc2)C3)o1
Result string: 90.56

Query string: Next: CCOc1ncccc1NC(=O)NCC(O)c1ccccc1OC (stereo not drawn)
Result string: -2.656

Query string: Consider next the compound Cc1nnc([C@]23COC[C@H]2CN(Cc2cccs2)C3)o1.O=C(O)C(F)(F)F in the same way.
Result string: 0.3646

Query string: Could you do the same for Cc1cnc(C)c(N2CCN(CCCc3ccncc3)CC2)n1 , please?
Result string: -5.646

Query string: What about COc1ccc(OC)c(C(O)CNC(=O)Nc2ccc(F)cc2F)c1 (stereo not drawn) ?
Result string: 81.01

Query string: Now consider Cc1ccc(CN2CCCC(c3nn(C)c4nccnc34)C2)s1 (stereo not drawn) .
Result string: 125.3

Query string: What do we get for O=C(CN1CCOCS1(=O)=O)NCCc1ccc(Cl)cc1 ?
Result string: 2.599

Query string: Then this compound: Cc1nnc([C@@]23CCO[C@@H]2CCN(S(C)(=O)=O)C3)o1
Result string: -9.969

Query string: Next compound up: Cc1nnc([C@]23COC[C@H]2CN(Cc2cnn(C)c2)C3)o1.O=C(O)C(F)(F)F
Result string: -19.13

Query string: Could you do the same for Cc1noc([C@@]23CCO[C@@H]2CCN(C(=O)c2sccc2C)C3)n1 , please?
Result string: -13.91

Query string: Also, CCn1ncc2c1CCCC2NCc1cscn1 (stereo not drawn) please.
Result string: -5.451

Query string: Please give the result for c1ccc(CCN2CCCC(Cn3ccnc3)C2)cc1 (stereo not drawn) too.
Result string: -0.01768

Query string: Same thing, different compound: CC(CNC(=O)c1nnn(-c2ccccc2)c1C(F)(F)F)N(C)C (stereo not drawn)
Result string: 5.891

Query string: Next compound: O=C1N(CC2CCC2)CCCC12CCN(S(=O)(=O)c1cccnc1)C2 (stereo not drawn)
Result string: 16.59

Query string: Same question, CC1CCc2nc(O)c(C(=O)NCCc3cccs3)cc2C1 (stereo not drawn) this time
Result string: -7.543

Query string: Request: Cc1nnc([C@@]23CCO[C@@H]2CCN(S(=O)(=O)c2cccnc2)C3)o1
Result string: 88.28

Query string: Try the compound COC(=O)CCCNC(=O)c1cc(COc2cncc(Cl)c2)on1
Result string: 3.929

Query string: And for COc1cccc(OCC2CCCN(C(=O)c3cc(C)n[nH]3)C2)c1 (stereo not drawn) ?
Result string: -67.83

----------
- System: Wolbachia pipientis
- Assay Method Text: Anti-Wolbachia Cell-Based Screen
- Assay type: functional
- Design: scale not given: in the data most compounds retested in dose-response had high values
- Condition Description: 5 µM
The campaign covered roughly 48,000 compounds. About 13,000 (27%) showed an effect of 50% or more. The list shows a part of the results.
Kindly state Percent Effect for each of the entries shown.
Hi! Could you send only the number? It should be in %, unit omitted.

Query string: Form field: reported Percent Effect of N#CCC(=O)NCc1nnc2n1CCN(Cc1ccsc1)C2
Result string: -8.086

Query string: Queued: O=C(COC1CCCC1)N1CCCN(c2ncccn2)CC1
Result string: -14.8

Query string: Item: CN(C)C(=O)C1CCc2nnc(C(C)(C)C)n21 (configuration not stated)
Result string: 107

Query string: Param item: CCCc1n[nH]cc1C(=O)N1CCC(c2nccn2CCOC)CC1
Result string: -3.808

Query string: For N#Cc1ccc(F)c(CN(CC(=O)N2CCCC2)CC2CCCO2)c1 (configuration not stated) then?
Result string: -8.762

Query string: Proceed to CC(=O)NCCNC(=O)c1cc(Br)c2c(c1)OCCO2
Result string: -14.07

Query string: Please answer likewise for CC(C)(C)c1nnc2n1C(C(=O)N1CCN(c3ncccn3)CC1)CC2 (configuration not stated)
Result string: 115.5

Query string: Try this compound too: CC(C)NC(=O)C1CCc2nnc(C(C)(C)C)n21 (configuration not stated)
Result string: 100.1

Query string: Note, next up: CC(NC(=O)CCOc1ccccc1Cl)c1nnc2n1CCC2 (configuration not stated)
Result string: 1.83

Query string: Field entry: CC(NC(=O)CCc1nc(C(C)(C)C)no1)c1nnc2n1CCC2 (configuration not stated)
Result string: 1.388

Query string: Do the same for CCn1ccc(C(=O)N2CCCN(Cc3ccccc3F)CC2)cc1=O please
Result string: -3.557

Query string: How about CC(C)(C)c1nnc2n1C(C(=O)N1CCOCC1)CC2 (configuration not stated) ?
Result string: 111.9

----------
Can you tell me Percent Effect for the items I'm about to list?
- System: Wolbachia pipientis
- Assay Method Text: Anti-Wolbachia Cell-Based Screen
- Assay type: functional
- Parameters: scale not given: in the data most compounds retested in dose-response had high values
- Condition Description: 5 µM
In all, about 48,000 compounds went through this assay and about 13,000 (27%) showed an effect of 50% or more. The list shows a part of the results.
// units = %; emit number, no label

Query string: Query: Percent Effect; subject: Cc1cnn(CC2CCCN2C(=O)c2cc(C)nc3[nH]nc(C)c23)c1 (stereo unspecified)
Result string: 150.6

Query string: How about Cc1cccc(-c2ccc(C(=O)NCC(C)(C)C(N)=O)c(=O)[nH]2)c1 ?
Result string: 6.298

Query string: Same question, Cc1cnn(CC2CCCN2C(=O)c2c(F)cccc2Cl)c1 (stereo unspecified) this time
Result string: 118.3

Query string: Please give the result for Cn1nnc2c1C(COCC1CC1)CN(C(=O)[C@H]1CCCO1)C2 (stereo partly specified) too.
Result string: 10.79

Query string: One more compound: Cc1cnn(CC2CCCN2C(=O)c2cccc(F)c2F)c1 (stereo unspecified)
Result string: 121.1

Query string: Would you kindly repeat that for Cc1ccc(CCN2CCCC23Cc2ccccc2CNC3=O)cc1 (stereo unspecified) ?
Result string: 109.3

Query string: Also NC(=O)c1ccc(-n2ccnc2C2CC2)cc1N1CCCC1 ?
Result string: 30.18

Query string: Entry O=C1N(CCc2ccccc2)CCCC1(O)CNCc1ccc(F)cc1 (stereo unspecified) please
Result string: 10.95

Query string: Entry to check: CC(C)NC(=O)N1CCC2(CC1)C(=O)NCCN2Cc1ccccc1.O=C(O)C(F)(F)F
Result string: -27.1

Query string: Also, Cc1cc(CN(C)C(=O)NC(C)c2nncn2C)no1 (stereo unspecified) please.
Result string: 1.763

Query string: Now consider CC(C)(C)c1noc(CCCC(=O)N2CCNC(=O)C2)n1 .
Result string: -4.153

----------
- Tested on: Wolbachia pipientis
- Assay Method Text: Anti-Wolbachia Cell-Based Screen
- Format: functional
- Set-up: scale not given: in the data most compounds retested in dose-response had high values
- Condition Description: 5 µM
In all, about 48,000 compounds went through this assay and about 13,000 (27%) showed an effect of 50% or more. The list shows a part of the results.
Metric Name: Percent Effect (%)
The answer is to be given in %; state only the numeric part.

Query string: Would you kindly share the measured Percent Effect for Cc1nc2n(n1)CC(NCc1nnc(C(C)(C)C)o1)CC2 (configuration not stated) ?
Result string: -15.95

Query string: Next entry: COc1cc(CNC2CCCN(c3cccnn3)C2)cc2c1OCO2 (configuration not stated)
Result string: -1.044

Query string: # repeat for Cl.c1cnc2c(c1)cc(C1CCOCC1)n2CCN1CCOCC1
Result string: -3.513

Query string: Please give the result for Cc1nc2n(n1)CC(NCc1cc(Cl)c3c(c1)OCCCO3)CC2 (configuration not stated) too.
Result string: 2.469

Query string: Then what about the compound CCc1nc2n(n1)CC(NCC(=O)Nc1cc(C)on1)CC2 (configuration not stated) ?
Result string: -10.03

Query string: Moving on to the next compound: COc1cc(CNC2CCc3nc(C(C)C)nn3C2)cc2c1OCO2 (configuration not stated)
Result string: -4.906

Query string: Check Cc1cccc(C(C(=O)N2CC(Oc3ccccc3F)C2)N(C)C)c1 (configuration not stated) too.
Result string: 3.868

Query string: Another compound: CCc1nc2n(n1)CC(NCc1cc(OC)c3c(c1)OCO3)CC2 (configuration not stated)
Result string: 105

Query string: And for Cl.Fc1cccc(F)c1Cn1c(C2CCNCC2)cc2cccnc21 ?
Result string: 115.5

Query string: What do we get for CCc1nc2n(n1)CC(NCc1ccccc1OCC(=O)NC)CC2 (configuration not stated) ?
Result string: 0.2163

Query string: Subsequent entry: CCc1nc2n(n1)CC(NCc1cc(OC)c3c(c1)OCCO3)CC2 (configuration not stated)
Result string: 96.75

Query string: Okay, and NC(=O)CCSCc1cc(Br)cc2cccnc12 ?
Result string: -18.43
